- System: Malme-3M
- test: NCI tumour cell line growth inhibition, 48 h
The source made the active and inactive calls. No stated cut-off is given here; in the data, active = GI50 up to about 1.1 µM and inactive = higher.
Output constraint: value belongs to True for active, False for inactive

Answered examples (4):
[
  {
    "molecule": "OCc1ccc2c(c1)CC1(Cc3ccc(/C=N/O)cc3C1)C2 (stereo not given)",
    "assignedCategory": "False"
  },
  {
    "molecule": "CC(=O)c1cc2c3c(c1)c1cc4c(cc1c(=O)n3CC2)OCO4",
    "assignedCategory": "False"
  },
  {
    "molecule": "CC(=O)Oc1ccc(O)c(O)c1C/C=C(\\C)CC/C=C(\\C)CC/C=C(\\C)CCC=C(C)C",
    "assignedCategory": "True"
  },
  {
    "molecule": "OC(C#CCN1CCCC1)(c1ccccc1)c1ccccc1Cl (stereo not given)",
    "assignedCategory": "False"
  }
]

Turning to the following molecule.
Tell me the assay call for CNC(=O)CCC(NC(=O)OC(C)(C)C)C(=O)NC(Cc1ccc(NC(=O)CCCCC(C)=O)cc1)C(=O)NCC(=O)NC (stereo not given) please.
False
